methodSummary: protein stability index of a GFP-peptide fusion (yeast GPS) (PSI 1-4); higher = more stable; sorted into four equal gates, so the index is relative within each strain
testConditions: doa10∆
# key: entry, value: protein stability index

Example entries begin here.
> print(dat)
                       itemsequence         reportedproperty  testresult
1  PNVFDKDSYVRIANIEQ [YDL088C/ASM4]  protein stability index           3
2          EMKIGSIESKLEEHKNH [SMC1]  protein stability index        3.03
3         FKQSNSETFLQFYVKRW [CDC53]  protein stability index        2.93

Turning now to a further record.
Prompt: Record request: protein stability index value, item TKGENYQLVKTLGEQLI [FAS2]
Response: 3.06
